Consider the following binders and their measured Kd readings.
Target: T1, Human soluble IL6-R (human, UniProt P08887 20-358)
T1 construct: Bought soluble receptor; biotinylated in some Alphascreen assays; also called sIL6-R; hIL-6R
T1 sequence (looked up): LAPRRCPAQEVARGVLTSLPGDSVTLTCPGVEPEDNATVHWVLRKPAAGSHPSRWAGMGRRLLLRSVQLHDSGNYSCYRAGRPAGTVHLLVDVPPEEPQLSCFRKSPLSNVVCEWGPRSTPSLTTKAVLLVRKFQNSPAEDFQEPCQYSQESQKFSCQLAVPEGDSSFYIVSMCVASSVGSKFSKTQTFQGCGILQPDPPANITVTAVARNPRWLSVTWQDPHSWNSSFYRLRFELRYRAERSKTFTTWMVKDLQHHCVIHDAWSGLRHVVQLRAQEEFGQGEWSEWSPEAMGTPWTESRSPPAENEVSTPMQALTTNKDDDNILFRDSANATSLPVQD
Assay: SPR (Biacore 3000), IL6-R on CM5 chip
Measure name: Kd

Binder: IL6R61 (VHH, Humanized variant of IL6R03) VHH: EVQLVESGGGLVQPGGSLRLSCAASGSIFKVNAMGWYRQAPGKGRELVAGIISGGSTNYADSVKGRLTISRDNAKNTVYLQMNSLRPEDTAVYYCSFVTTNSDYDLGRDYWGQGTLVTVSS
Measure name: Kd
Test result: 2 nM
//
Binder: IL6R62 (VHH, Humanized variant of IL6R03) VHH: EVQLVESGGGLVQPGGSLRLSCAASGSIFKVNAMGWYRQAPGKGRELVAGIISGGSTNYADSVKGRFTISRDNAKNTVYLQMNSLRPEDTAVYYCSFVTTNSDYDLGRDYWGQGTLVTVSS
Measure name: Kd
Test result: 2.22 nM
//
Binder: IL6R74 (VHH, Humanized variant of IL6R04) VHH: EVQLVESGGGLVQPGGSLRLSCAASGFTFDDYDIGWFRQAPGKGREGVSGISSSDGNTYYADSVKGRFTISSDNAKNTLYLQMNSLRPEDTAVYYCAAEPPDSSWYLDGSPEFFKYWGQGTLVTVSS
Measure name: Kd
Test result: 0.16 nM
//
Binder: IL6R72 (VHH, Humanized variant of IL6R04) VHH: EVQLVESGGGLVQPGGSLRLSCAASGFTFSDYDIGWFRQAPGKGREGVSGISSSDGNTYYADSVKGRFTISSDNAKNTVYLQMNSLRPEDTAVYYCAAEPPDSSWYLDGSPEFFKYWGQGTLVTVSS
Measure name: Kd
Test result: 0.33 nM
//
Binder: IL6R82 (VHH, Humanized variant of IL6R13) VHH: EVQLVESGGGLVQPGGSLRLSCAASGFTFDDYGMSWVRQAPGKGLEWVSAISWNGNNTYYTESMKGRFTISRDNAKNTVYLQMNSLRPEDTAVYYCVKGSTAIVGVPPTYPDEYDYWGQGTLVTVSS
Measure name: Kd
Test result: 5.07 nM
//
Binder: IL6R75 (VHH, Humanized variant of IL6R04) VHH: EVQLVESGGGLVQPGGSLRLSCAASGFTFSDYDIGWFRQAPGKGREGVSGISSSDGNTYYADSVKGRFTISRDNAKNTLYLQMNSLRPEDTAVYYCAAEPPDSSWYLDGSPEFFKYWGQGTLVTVSS
Measure name: Kd
Test result: < 0.1 nM

Hello, the source for this data is patent US20140221623A1, in case you need it.
